- System: primary human total T-cells
- assay method text: T-cell activation assessed by cytokine secretion (GM-CSF, IFNγ, TNFα)
- Assay type: cell-based
- experimental conditions: CD3/CD28 stimulation, 1.11 μM, read-out: IFNγ secretion
This listing pairs molecules with measured fold induction at 1.11 µM.
readout type: fold induction at 1.11 µM

C[C@H](Cc1nncn1C)c1cccc(NC(=O)c2n[nH]c3c2CCC3)c1: < 2
Cc1cc(C(=O)Nc2cccc([C@H](C)Cc3nncn3C)c2)nc(C2CC2)n1: 2.01 to 3
Cn1cnnc1C(F)(F)[C@](C)(F)c1cccc(N2Cc3c(cc(CN4CC[C@@H](C#N)C4)cc3C(F)(F)F)C2=O)c1: > 4
Cn1cnnc1CC1(c2cccc(N3Cc4c(cc(CN5CCC6(CC6)C5)cc4C(F)(F)F)C3=O)c2)COC1: > 4
Cn1cnnc1CC1(c2cccc(N3Cc4c(cc(CN5CC(F)C5)cc4C(F)(F)F)C3=O)c2)COC1: 3.01 to 4
Cc1n[nH]c(C)c1-c1cc2c(c(C(F)(F)F)c1)CN(c1cccc(C3(Cc4nncn4C)COC3)c1)C2=O: < 2
C[C@H](Sc1nncn1C)c1cccc(NC(=O)c2cc(C(=O)N3CC[C@H](O)C3)ccn2)c1: 2.01 to 3
